# Test system: A549/ATCC NSCLC
# assay-explanation: NCI-60 one-dose screen, 48 h
# condition-notes: 10 µM unless noted
The panel holds about 83,000 compounds, 20% with a hit somewhere; the sample as a whole holds those more often. Calls of active or inactive are those of the source. How the source made its calls: active means growth percent below 10; inactive means the rest.
Possible outcomes: 1.0 = active, 0.0 = inactive

{"columns": ["compound", "cat"],
 "data": [
  ["Cc1ccc(C23CCC(=O)N2CCc2cncn23)cc1 (stereo not drawn)", 0.0],
  ["COc1ccc2c(c1)c(-c1nc(-c3cn(C)c4ccncc34)cs1)cn2C", 1.0],
  ["COc1ccc(-c2nc3cc(C(=O)NC4CCCCC4)ccc3n2C2CCCCC2)cc1", 0.0],
  ["O=C(/C=C/c1ccco1)Nc1ncc(Cc2ccc(F)cc2)s1", 0.0],
  ["CCOC(=O)c1c(N)sc2cc(O)ccc12", 0.0],
  ["COc1cc(NC(=O)c2cncnc2Nc2ccc3c(ccn3Cc3cccc(F)c3)c2)cc(OC)c1", 0.0],
  ["COc1cccc(C(=O)Nc2cccc(NC(=O)c3ccccn3)c2)c1", 0.0],
  ["CCN(CC)CCCC(Nc1c2ccc(Cl)cc2nc2ccc(OC)cc12)c1ccncc1 (stereo not drawn)", 0.0],
  ["CCN(CC)CCOc1ccc(/C(=C(\\C)Cc2ccc(OC)cc2)c2ccc(O)cc2)cc1", 0.0],
  ["C=CCNc1nc(O)c(/C=C2\\C=Nc3ncccc32)s1", 0.0],
  ["CC1=NC(=S)NC(c2ccccc2)/C1=C1/CC(c2ccccc2O)NN1 (stereo not drawn)", 0.0],
  ["Cc1ccc(Nc2nc(N)nc(N)c2N=O)cc1Cl", 0.0],
  ["CCCn1cnc2c(c1=N)C(c1ccc(Cl)cc1)c1sc3c(F)cccc3c1O2 (stereo not drawn)", 0.0],
  ["COC(=O)CNC(=O)c1ccc(NC(=O)c2[nH]c(C)c(Cl)c2Cl)c(O[C@H]2CCNC2)c1", 0.0],
  ["c1ccc(Cn2cc3c(c2)-c2nc(Nc4ccccc4)ncc2CC3)cc1", 0.0],
  ["Nc1cc(-c2ccc(Cl)cc2)nn1-c1nc(-c2ccc(Br)cc2)cs1", 0.0],
  ["CCOC(=O)C1=C(C)N(C)C(=O)N(C)C1c1ccccc1 (stereo not drawn)", 0.0],
  ["CC1OC(C(=O)N2CCN(CCO)CC2)CC1COC1CCCCC1 (stereo not drawn)", 0.0],
  ["N#Cc1c(-c2ccc(F)cc2)cc(-c2cccc(Cl)c2)[nH]c1=O", 0.0],
  ["Cn1cc(-c2nc(-c3c[nH]c4ccncc34)cs2)c2cc(F)ccc21", 1.0],
  ["COc1ccc(C(=O)C2OC3=C(C(=O)CC(C)(C)C3)C2c2cccc(Oc3ccccc3)c2)cc1 (stereo not drawn)", 0.0],
  ["O=c1c(/C=C/c2c(O)ccc3ccccc23)nnc2sc(-c3cccc([N+](=O)[O-])c3)nn12", 0.0],
  ["O=C(Nc1cccc(Cn2c(=O)[nH]c3ccc(Oc4ncccn4)cc3c2=O)c1)c1cccc(Cl)c1", 0.0],
  ["CC(C)(C#N)c1cc(C(=O)Nc2cc(Nc3ncccc3-c3ncnc4nc[nH]c34)ccc2F)cc(C(F)(F)F)c1", 0.0],
  ["Cc1ccc(-c2nc(C#N)c(S(=O)(=O)n3nc(C)cc3N)o2)cc1", 0.0],
  ["C#CC#CC#CC#CC#CC#CC#CC#CC[C@@H]1OC[C@H](COC(=O)O[C@@H](C(=O)O[C@H]2C[C@@]3(O)[C@@H](OC(=O)c4ccccc4)[C@@H]4[C@]5(OC(C)=O)CO[C@@H]5C[C@H](O)[C@@]4(C)C(=O)[C@H](OC(C)=O)C(=C2C)C3(C)C)[C@@H](NC(=O)c2ccccc2)c2ccccc2)O1", 0.0],
  ["N#C/C(=N\\Nc1ccccc1)C(=O)Nc1cc(-c2ccccc2)nn1-c1ccccc1", 0.0],
  ["COc1ccc(C(=O)/C=C/c2ccc(C)cc2)cc1S(N)(=O)=O", 0.0],
  ["COC(=O)[C@@H](Cc1c[nH]c2ccccc12)NC[C@@H](O)CN1C(=O)/C(=C\\c2cc(OC)c(OC)c(OC)c2)c2ccccc21", 0.0],
  ["C=CCn1c(SCC(=O)Nc2ccc(C(=O)/C=C/c3cc(OC)c(OC)c(OC)c3)cc2)nnc1-c1cc(-c2ccc(S(N)(=O)=O)cc2)nc2ccccc12", 0.0],
  ["COc1ccc(N/N=C/c2ccc3c(c2)Sc2ccccc2N3C)cc1", 0.0],
  ["COc1ccc(NC(=O)c2sc3nc(C)c(C(=O)c4ccccc4)cc3c2N)cc1", 0.0],
  ["O=C(CSc1nc(-c2ccccc2)cn1-c1ccc(Cl)cc1)c1ccc([N+](=O)[O-])cc1", 0.0],
  ["COc1ccc(CNc2c3ccccc3nc3ccccc23)cc1OC", 0.0],
  ["CSc1nn2c(-c3cc4cc(Br)ccc4oc3=O)ccnc2c1C#N", 0.0],
  ["c1ccc2c(-c3cnn4cc(-c5ccc(N6CCNCC6)cc5)cnc34)ccnc2c1", 1.0],
  ["CC(C)(C)n1cc(-c2ccnc(NCCNS(=O)(=O)c3ccc(C(F)(F)F)cc3)c2)c(-c2ccccc2)n1", 0.0],
  ["COc1ccc(/C=C\\c2cc(OC)c(OC)c(OC)c2)cc1OCC(=O)Nc1nc2ccccc2s1", 0.0]
]}

* * *

# Tested on: NCI-H23 lung
# assay-explanation: NCI-60 one-dose screen, 48 h (100 = growth as untreated, 0 = no growth, -100 = all killed)
# condition-notes: 10 µM unless noted
This is part of a sample that, as a whole, favours compounds with a hit. Of some 83,000 tested, about 20% had one in any assay. Active and inactive are the calls of the source. Rule for the calls: active = growth percent below 10; inactive = the rest.
readout-kind: growth

{"columns": ["compound", "readout-kind", "reported"],
 "data": [
  ["CCN1C(=O)N(CC)C2C1NN=c1s/c(=C\\c3ccc(F)cc3)c(=O)n12 (centres undefined)", "growth", "39.3% (inactive)"],
  ["COc1ccc(C2CC(=O)Oc3c(OC)c4c(c(OC)c32)OCO4)cc1 (centres undefined)", "growth", "98.1% (inactive)"],
  ["COc1cc(C(=O)n2nc(NCCCc3ccccc3)c3cc(N)ccc32)cc(OC)c1OC", "growth", "92.8% (inactive)"],
  ["Cc1c(C)c2c(c(C)c1OC(=O)CCC(=O)[O-])CCC(C)(CCCCCCCCCCC[P+](c1ccccc1)(c1ccccc1)c1ccccc1)O2 (centres undefined)", "growth", "-16.5% (active)"],
  ["CCCCCCCCCCCCCCCCCCOc1ccccc1CC(=O)OCC[N+]1(C)CCCCC1", "growth", "29.8% (inactive)"],
  ["C=C1/C(=C\\C=C2/CCC[C@]3(C)[C@@H]([C@H](C)CCCC(C)(C)O)CC[C@@H]23)C[C@@H](OC(=O)CBr)C[C@@H]1O", "growth", "37.7% (inactive)"],
  ["CO[C@H]1/C=C/O[C@@]2(C)Oc3c(C)c(O)c4c(O)c(c5c(nc6cc(C)ccn65)c4c3C2=O)NC(=O)/C(C)=C\\C=C\\[C@H](C)[C@H](O)[C@@H](C)C(O)[C@@H](C)[C@H](OC(C)=O)[C@@H]1C (some centres undefined)", "growth", "99.6% (inactive)"],
  ["O=C(Nc1ncc(Cc2ccccc2)s1)c1cc(-c2ccccc2)nc2ccccc12", "growth", "89.3% (inactive)"],
  ["Oc1ccc(C2OCCO2)c2cccnc12", "growth", "33% (inactive)"]
]}

* * *

# Test system: HOP-92 NSCLC
# assay-explanation: NCI-60 one-dose screen, 48 h (100 = growth as untreated, 0 = no growth, -100 = all killed)
# condition-notes: 10 µM unless noted
The panel holds about 83,000 compounds, 20% with a hit somewhere; the sample as a whole holds those more often. Calls of active or inactive are those of the source. Rule for the calls: active = growth percent below 10; inactive = the rest.

{"columns": ["molecule", "growth"],
 "data": [
  ["O=C(O)/C=C/c1cn(-c2ccccc2)nc1-c1ccc(F)cc1", "84.3% (inactive)"],
  ["O=C(O)COc1ccc(F)cc1", "102% (inactive)"],
  ["CCCCC1=C(Br)C(=O)c2ncccc2C1=O", "46.2% (inactive)"],
  ["O=C1c2cccnc2C(=O)c2c1c(C(=O)OCCCN1CCOCC1)c1ccccn21", "-20.6% (active)"],
  ["O=c1ccc2c(ccc3ncccc32)o1", "112% (inactive)"],
  ["C#C[C@]1(O)CC[C@H]2[C@@H]3CC=C4c5sc(-c6cccc(C)c6)nc5CC[C@]4(C)[C@H]3CC[C@@]21C", "49.6% (inactive)"],
  ["CC(C)CCc1nc2ccc(NCc3ccc(OCCN4CCC(C)CC4)cc3)cc2[nH]1", "53.5% (inactive)"],
  ["CCOC(=O)C1=C(c2ccccc2)N=C2SC=C(c3cccc([N+](=O)[O-])c3)N2C1c1ccc(O)cc1 (stereo not given)", "90.1% (inactive)"],
  ["CN1CCN(Cc2ccc(NC(=O)c3cncc(C#Cc4cnc(N)c5ccc(C#N)cc45)c3)cc2C(F)(F)F)CC1", "-15.2% (active)"],
  ["COc1ccc(C(=O)C2OC3=C(C(=O)CC(C)(C)C3)C2c2cccc(Oc3ccccc3)c2)cc1 (stereo not given)", "76.4% (inactive)"]
]}
